Test system: NCI-H460 lung
Measurement description: NCI tumour cell line growth inhibition, 48 h
Result type: TGI

Asked: Output measured TGI for this item: COc1cccc(/C=N/[N-]C(N)=O)c1[O-].[Co+2].[OH3+].c1ccncc1
Given back: > 100 µM

Asked: Output measured TGI for this item: Cc1cc(N=Cc2c(CO)cnc(C)c2O)c(N=Cc2c(CO)cnc(C)c2O)cc1C
Given back: > 100 µM

Asked: Output measured TGI for this item: CC1(C)[C@H]2Cc3cc4nc5ccccn5c4cc3[C@@H]1C2
Given back: 38.8 µM

Asked: Output measured TGI for this item: N#Cc1cccc(C2C(=O)c3ccc(C(=O)c4ccc5c(c4)C(=O)N(c4ccc(Oc6ccc(N7C(=O)c8ccc(C(=O)c9ccc%10c(c9)C(=O)N(c9cccc(C#N)c9)C%10=O)cc8C7=O)cc6)cc4)C5=O)cc3C2=O)c1 (stereo not drawn)
Given back: > 100 µM

Asked: Output measured TGI for this item: CC(=O)Nc1ccc(C2=N/C(=C\c3ccc(Cl)cc3)C(=O)O2)cc1
Given back: > 100 µM

* * *

Test system: NCI-H226 lung
Measurement description: NCI tumour cell line growth inhibition, 48 h
Result type: TGI

Asked: Fill in TGI for Cn1c(=O)c2c(=O)cc(N)[nH]c2n(C)c1=O tested with NCI-H226 lung.
Given back: > 100 µM

Asked: Fill in TGI for CCCCCCCCCCCCCCCCCCOc1ccccc1COP(=O)(O)OOCC[N+](C)(C)C tested with NCI-H226 lung.
Given back: 5.54 µM

Asked: Fill in TGI for CCOC(=O)C(=O)C(C#N)c1ccc(Cl)cc1 (stereo not given) tested with NCI-H226 lung.
Given back: > 100 µM

Asked: Fill in TGI for C[C@]12CC[C@H]3[C@@H](CC[C@]4(O)C[C@@H](O[C@@H]5O[C@H](CO)[C@@H](O[C@@H]6OC[C@@H](O)[C@H](O)[C@H]6O)[C@H](O)[C@H]5O)CC[C@]34C=O)[C@@]1(O)CC[C@@H]2C1=CC(=O)OC1 tested with NCI-H226 lung.
Given back: 3.69 µM

Asked: Fill in TGI for COc1cc(C(=O)NN=C2c3ccccc3-c3ccccc32)cc(OC)c1OC tested with NCI-H226 lung.
Given back: 73.9 µM

Next:
Asked: Fill in TGI for CCc1ccccc1NC(=O)C(=O)C1C(=O)N(c2ccccc2)N=C1N (stereo not given) tested with NCI-H226 lung.
Given back: > 100 µM

Asked: Fill in TGI for Nc1c(C(=O)Nc2cccc(C(F)(F)F)c2)sc2nc3c(cc12)CCCCCC3 tested with NCI-H226 lung.
Given back: 11.9 µM

Asked: Fill in TGI for NS(=O)(=O)c1ccc(NC(=O)c2ccc3nc4ccccc4c(Nc4ccc(S(N)(=O)=O)cc4)c3c2)cc1 tested with NCI-H226 lung.
Given back: > 100 µM

Asked: Fill in TGI for O=C(CC(C(=O)c1cccs1)c1ccc2c(c1)OCO2)c1ccccc1 (stereo not given) tested with NCI-H226 lung.
Given back: > 100 µM

Asked: Fill in TGI for O=C(/C=C/c1cccc(Br)c1)N1CCN(CCOC(c2ccccc2)c2ccccc2)CC1 tested with NCI-H226 lung.
Given back: > 100 µM

Asked: Fill in TGI for O=C(Cc1nc2ccccc2o1)C(=O)Nc1ccc(Cl)cc1Cl tested with NCI-H226 lung.
Given back: > 100 µM

* * *

A collection of molecules and their measured TGI
Tested on: SN12C renal
Measurement description: NCI tumour cell line growth inhibition, 48 h
All answers are understood in µM, so give the number only.

Asked: Output measured TGI for this item: CCN(CC)CC(O)c1cc(-c2ccc(Cl)cc2)nc2c(C)c(Cl)ccc12 (stereo not given)
Given back: 3.22

Asked: Output measured TGI for this item: CN(C)CCCCNc1ccc(NCCCCN(C)C)c2c1C(=O)c1c(O)ccc(O)c1C2=O
Given back: 25.8

Asked: Output measured TGI for this item: C=C(C)COc1cc(NC(=S)OC(C)C)ccc1Cl
Given back: 30.6

Asked: Output measured TGI for this item: COc1ncc(-c2ccc3nccc(C#CCCCCC(=O)NO)c3c2)cc1NS(=O)(=O)c1ccc(F)cc1F
Given back: 17.5

Asked: Output measured TGI for this item: COc1ccc(C=O)cc1OS(=O)(=O)C(F)(F)C(F)(F)C(F)(F)C(F)(F)F
Given back: 97.5

Next:
Asked: Output measured TGI for this item: CC[As](CC)SCC1OC(OC(C)=O)C(OC(C)=O)C(OC(C)=O)C1OC(C)=O (stereo not given)
Given back: 28.4

Asked: Output measured TGI for this item: CC(C)C(/C=C/c1ccc(Cl)cc1)=N\NC(=O)N/N=C(/C=C/c1ccc(Cl)cc1)C(C)C
Given back: 33.7

Asked: Output measured TGI for this item: CCCCCCCCCCCCCCCC(=O)OC1C(O)C(O)C(O)C(O)C12CO2 (stereo not given)
Given back: 34.5

Asked: Output measured TGI for this item: Cc1ccc(NC(=O)CC2SC(=Nc3ccc(Cl)cc3)NC2=O)cc1C (stereo not given)
Given back: 31.9

Asked: Output measured TGI for this item: Cc1cc(C)c2c(c1)N(C)c1ncnc(-n3cnc4cc(C)ccc43)c1CC2C (stereo not given)
Given back: 19.7

* * *

System: EKVX NSCLC
Measurement description: NCI tumour cell line growth inhibition, 48 h
A collection of compounds and their measured TGI

Known TGI results, listed for orientation:
Asked: Output measured TGI for this item: OCC1OC(n2cnc3c(Cl)nc(Nc4ccc(Cl)c(Cl)c4)nc32)CC1O (stereo not given)
Given back: 28.2 µM

Asked: Output measured TGI for this item: S=C(S)NCCN1CCNCC1
Given back: > 100 µM

Asked: Output measured TGI for this item: CCCCOC(=O)c1c(C)[nH]c(/C=C2\N=C(c3ccc[nH]3)C=C2OC)c1C
Given back: 4.88 µM

Next:
Asked: Output measured TGI for this item: Cc1[nH]nc(C(=O)N/N=C/c2ccccc2Cl)c1N=NN(C)C
Given back: > 100 µM

Asked: Output measured TGI for this item: O=C(Nc1ccc(Cl)cc1)c1cc(S(=O)(=O)N2CCNNC2=O)c(S)cc1Cl
Given back: > 100 µM

Asked: Output measured TGI for this item: CC(=O)Nc1ccc(C2=N/C(=C\c3ccc(Cl)cc3)C(=O)O2)cc1
Given back: > 100 µM

* * *

A collection of compounds and their measured TGI
Test system: SF-268 CNS
Measurement description: NCI tumour cell line growth inhibition, 48 h

Known TGI results, listed for orientation:
Asked: Output measured TGI for this item: NC1NCCC(=O)N1CCc1c[nH]c2ccccc12 (stereo not given)
Given back: 46.4 µM

Asked: Output measured TGI for this item: CCCCCCCCCCCCCCCC(=O)OC1C(O)C(O)C(O)C(O)C12CO2 (stereo not given)
Given back: > 100 µM

Asked: Output measured TGI for this item: C=C(C)CCC(O)[C@](C)(O)[C@H]1[C@H](O)C[C@@]2(C)[C@@H]3CCc4c(cc(OC5OC(CO)C(O)C(O)C5O)c(O)c4C)C3(C)C(=O)C[C@]12C (stereo not given in full)
Given back: > 100 µM

Asked: Output measured TGI for this item: CC(C)(C)CI
Given back: > 100 µM

Asked: Output measured TGI for this item: COc1ccc2c(ccc3c(C(=O)NCCCN(C)CCCNC(=O)c4cn(C)c5c4ccc4cc(OC)ccc45)cn(C)c32)c1
Given back: 3.38 µM

Asked: Output measured TGI for this item: C=C(C)COc1cc(NC(=S)OC(C)C)ccc1Cl
Given back: 40.6 µM

Asked: Output measured TGI for this item: CON[N+]([O-])=NC(C)C
Given back: > 100 µM

Asked: Output measured TGI for this item: Cc1cccc(N=N/C(=N\NC(=O)c2cc(Cl)ccc2O)c2ccc(N(CCC#N)CCC#N)cc2C)c1
Given back: > 100 µM

Asked: Output measured TGI for this item: COC(=O)[C@H](Cc1ccccc1)NC(=O)N(CCNC(=O)OC(C)(C)C)c1ccccc1
Given back: > 100 µM

Now, please, on to the next compound.
Asked: Output measured TGI for this item: Nc1nc(N)c2c(n1)CCC(S(=O)(=O)c1ccc3ccccc3c1)C2 (stereo not given)
Given back: > 100 µM

* * *

Tested on: HL-60(TB) leukemia
Measurement description: NCI tumour cell line growth inhibition, 48 h
Result type: TGI

Asked: Output measured TGI for this item: COCCCC(NC(=O)C(CC(C)C)NC(=O)OCc1ccc(OC)cc1)C(=O)OC (stereo not drawn)
Given back: 57.5 µg/mL

Asked: Output measured TGI for this item: COc1cccc(/C=N/[N-]C(N)=O)c1[O-].[Co+2].[OH3+].c1ccncc1
Given back: > 100 µM

Asked: Output measured TGI for this item: O=CC1OC(=O)c2cc(O)c(O)c(O)c2-c2c(cc(O)c(O)c2O)C(=O)OC1C1OC(=O)c2cc(O)c(O)c(O)c2-c2c(O)c(O)c3oc(=O)c4c(c(O)c(O)c5oc(=O)c2c3c54)-c2c(cc(O)c(O)c2O)C(=O)OCC1O (stereo not drawn)
Given back: > 100 µM

Asked: Output measured TGI for this item: CCOC(=O)CC1Nc2ccccc2C12CCc1c([nH]c3ccccc13)C2C(=O)OCC (stereo not drawn)
Given back: 53.8 µM

Asked: Output measured TGI for this item: CC(C)C(CCOS(=O)(=O)O)CCC(C)[C@H]1[C@@H](O)C(O)C2[C@]3(O)C[C@@H](O)C4(O)C[C@@H](O)CC[C@]4(C)C3CC[C@@]21C (stereo partly drawn)
Given back: > 100 µM

Asked: Output measured TGI for this item: O=C1c2ccccc2C(=O)N1NC1=NCCN1
Given back: > 100 µM

Asked: Output measured TGI for this item: NC1NCCC(=O)N1CCc1c[nH]c2ccccc12 (stereo not drawn)
Given back: 44.7 µM

Now, please, on to the next compound.
Asked: Output measured TGI for this item: Cc1ccccc1-n1c(CCl)nc2ccc(Br)cc2c1=O
Given back: 17 µM
